molecular target: AgHof1; experiment: SPOT peptide array binding signal intensity (averaged, normalized) (arbitrary units (background-subtracted, floor 0; scale differs between SH3 domains)); higher = stronger binding of the SH3 domain to the peptide
Use satisfied when the recorded SPOT peptide array binding signal intensity is no lower than 20; use not satisfied when it is lower.

INSERT INTO measurements (binder, class_label) VALUES
  ('VYTRTAFQIPGDDKI', 'not satisfied'),
  ('KKIRLIFTYPSTVGR', 'satisfied'),
  ('KTITLEVESSDTIDN', 'not satisfied'),
  ('QRIRKIPGIPLMSVG', 'satisfied'),
  ('NVLRKILEIPLHSFS', 'not satisfied'),
  ('GTIARPLFLVVLFFI', 'not satisfied'),
  ('APPPPPRRATPEKKP', 'not satisfied'),
  ('TSIEIPKRSPLRFTS', 'not satisfied'),
  ('HGKRRAPLLLAKLDV', 'not satisfied'),
  ('HKVLRPFLLRRLKKD', 'satisfied'),
  ('LKVTPGRRAPTISKI', 'not satisfied'),
  ('WTQRRGPLVVYAEDN', 'not satisfied'),
  ('IHTRRPSSTSQYLIR', 'satisfied'),
  ('PSRRDSLSIPRAVDA', 'not satisfied');

Cited source for all entries: the supplement of paper PMC4466140
